Values from PubChem BioAssay

# Assay explanation: inhibitors of TNFa-induced NFkB p65 translocation, primary screen, imaging, HUVEC, MLSMR starter and 10KST1 sets (AID 438);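 also: compound added about 3h40 before a 20 min TNFalpha stimulation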
# Measurement parameters: HUVEC TNFa-induced p65 nuclear translocation; measured here: nuclei count (cytotoxicity indicator), at 2.08 µM
class 1 means recorded cell count is 500 or above; class 0 means it is below 500.

> print(dat)
                                   compound  discrete.label
1  CC(C)(C)OC(=O)c1c(N)n(Cc2ccco2)c2nc3ccccc3nc12         class 0
2  Cc1ccc(S(=O)(=O)Cc2ccc(C(=O)N3CCC4(CC3)OCCO4)o2)cc1         class 1
3    Cc1cccc(-n2c(-c3ccco3)nc3ccccc3c2=O)n1         class 0
4  CCOc1c(P(=S)(N(C)C)N(C)C)c(C)nn1-c1ccccc1         class 0
5  CCN(CC)c1ccc(N=Cc2c(O)n(-c3cc(OC)ccc3OC)c(=O)[nH]c2=O)cc1         class 0

Form field: cell count at least 500? Entry: CCCCn1c(O)c(C(C)=Nc2cccc(C(=O)O)c2)c(=O)[nH]c1=O
class 0

Here is the next compound: CC(=NCCO)c1c(O)n(C)c(=O)n(C)c1=O
class 1
